The reported numbers originate from ChEMBL document CHEMBL6092219.

target: UniProt:P0DTD1; assay: Inhibition of SARS-CoV-2 PL protease using Ub-AMC as substrate preincubated for 30 mins followed by substrate addition measured for 1 hr
property.label: Ki (nM)
Please respond with the number in nM and leave the unit unwritten.

Item: CCn1ccc(-c2cc(-c3cnn(C)c3)cc([C@@H](C)NC(=O)c3ccccc3CCC(=O)NNC(=O)/C=C/C(=O)N3CC(F)(F)C3)c2)n1 | System: UniProt:P0DTD1 | Ki: 0.25

* * *

Listed below: half-life at 1 µM values for each entry.
assay: Metabolic stability in mouse liver microsomes assessed as half life at 1 uM incubated for 60 mins by LC/MS/MS analysis; assay type: ADME, Microsome; conditions: liver microsomes
Please respond with the number in h and leave the unit unwritten.

For reference, reported half-life at 1 µM for CCn1ccc(-c2cc(-c3cnn(C)c3)cc([C@@H](C)NC(=O)c3ccccc3CCC(=O)NNC(=O)/C=C/C(=O)NC3CC(F)(F)C3)c2)n1 stands at 1.31

For reference, reported half-life at 1 µM for CCn1ccc(-c2cc(-c3cnn(C)c3)cc([C@@H](C)NC(=O)c3ccccc3CCC(=O)NNC(=O)/C=C/C(=O)N3CC(F)C3)c2)n1 stands at 1.3

For reference, reported half-life at 1 µM for CCn1ccc(-c2cc(-c3cnn(C)c3)cc([C@@H](C)NC(=O)c3ccccc3CCC(=O)NNC(=O)/C=C/C(=O)N3CC(C)(C)C3)c2)n1 stands at 1.4

* * *

Listed below: IC50 values for each entry.
target: Replicase polyprotein 1ab (Severe acute respiratory syndrome coronavirus 2)
Please respond with the number in µM and leave the unit unwritten.

Item: CCOC(=O)/C=C/C(=O)NNC(=O)CCc1ccccc1C(=O)N[C@H](C)c1cc(-c2cnn(C)c2)cc(-c2ccn(CC)n2)c1 | System: Replicase polyprotein 1ab (Severe acute respiratory syndrome coronavirus 2) | IC50: 0.1

Item: CCn1ccc(-c2cc(-c3cnn(C)c3)cc([C@@H](C)NC(=O)c3ccccc3CCC(=O)NNC(=O)CCl)c2)n1 | System: Replicase polyprotein 1ab (Severe acute respiratory syndrome coronavirus 2) | IC50: 0.3

Item: CCn1ccc(-c2cc(-c3cnn(C)c3)cc([C@@H](C)NC(=O)c3ccccc3CCC(=O)NNC(=O)/C=C/C(=O)NC3CC3)c2)n1 | System: Replicase polyprotein 1ab (Severe acute respiratory syndrome coronavirus 2) | IC50: 0.2

Next:
Item: CCn1ccc(-c2cc(-c3cnn(C)c3)cc([C@@H](C)NC(=O)c3ccccc3CCC(=O)NNC(=O)/C=C/C(=O)N3CC(F)C3)c2)n1 | System: Replicase polyprotein 1ab (Severe acute respiratory syndrome coronavirus 2) | IC50: 0.1

Item: CCOC(=O)/C=C/C(=O)NCC(=O)NCc1ccccc1C(=O)NC1(c2cc(-c3cnn(C)c3)cc(-c3ccn(CC)n3)c2)CC1 | System: Replicase polyprotein 1ab (Severe acute respiratory syndrome coronavirus 2) | IC50: 1.1

* * *

tested on: SARS-CoV-2; experiment: Antiviral activity against wild-type SARS-CoV-2 WA1 infected in human Caco-2 cells expressing hTMPRSS/hACE2 incubated for 48 hrs in presence of CP-100356 by crystal violet staining based analysis; assay type: functional, organism-based; conditions: Severe acute respiratory syndrome coronavirus 2, WA1, Caco-2, 48 h
property.label: EC50 (nM)
Please respond with the number in nM and leave the unit unwritten.

For reference, reported EC50 for CC(C)(C)[C@H](NC(=O)C(F)(F)F)C(=O)N1C[C@H]2[C@@H]([C@H]1C(=O)N[C@H](C#N)C[C@@H]1CCNC1=O)C2(C)C stands at 33.9
